Taken from patent US20130131322A1.

# Test target: T1, TGF-α-hFc (human, UniProt P01135 40-89)
# T1 construct: not shown: Fc portion of human immunoglobulin G1, fused on the C-terminal side
# T1 sequence (P01135 40-89 limits assumed): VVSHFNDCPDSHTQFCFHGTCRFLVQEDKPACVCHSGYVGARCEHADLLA
# Assay method text: solid phase ELISA, TGFα-hFc on plate
Quick reference: OD (solid phase ELISA) of the listed items.
Report only the number, with the unit OD understood.

# Binder, OD (solid phase ELISA) (OD)
measured = [
    ("MBL144-1 (antibody, mouse IgG1, V domains shown) VH: VQLQESGPGLAKPSQTLSLTCSVTGYSITSDYWNWIRKFPGNKLEYMGYISYSGSTYYNPSLKSRISITRDTSKNQYYLQLNSVTTEDTATYYCARSYDGICFDNWGQGTTLTVSS VL: DILMTQSPATLSVTPGETVSLSCRASQNTYKNLHWYQQKSHGTPKLLIKYASAPISGIPSRFTGSGSGTDYTLSINSVKPEDEGIYYCLQGYSMPWTFGGGTKLEIK", 0.65),
    ("MBL184-6 (antibody, mouse IgG1, V domains shown) VH: EVQLQQSGAELVRPGASVKLSCTVSGFNIKDDYMHWVKQRPEQGLEWIGRIDPANGHTKYAPKFQDKATITADTSSNTAYLQFSSLTSEDTAVYYCTRMGLRRGYWGQGTTLTVSS VL: IQMTQSSSSLSVSLGDRVTITCKASEHINSWLAWYQQKPGNAPRLLISGATNLKTGVPSRFSGSASGKDYTLNITSLQTEDVATYYCQQYWGTPWTFGGGTKLEIK", 0.745),
]

The record that follows has no OD (solid phase ELISA) shown yet.
Enquiry: Field request: OD (solid phase ELISA) | item: MBL259-3 (antibody, mouse IgG2a, V domains shown) VH: VQLQQSGAELVRPGASVKLSCTASDFNIKDDYMHWMKQRPEQGLEWIGRIDPANGNTKYAPKFQDKATMTADTSSNTAYLQFSSLTSEDTAVYYCATSWGFPYWGQGTLVTVSA VL: DIVMTQAAPSVPVTPGESVSISCRSSKSLLHRNGNTYLYWFLQRPGQSPQLLIYRMSNLASGVPDRFSGSGSGTAFTLRISRVEAEDVGVYYCLQHLEYPYTFGSGTKLEIK
Return: 1.11
